For each record, write down the corresponding %Inh.
tested on: NLK; details: concentration: 1 μM,replicates: in singlicate; n = 1;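 further: KINOMEscan kinase panel screen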
Numbers only, in %.

Some solved cases for reference:
> print(dat)
                                   molecule  property  unitlabel  valueobserved
1  O=C(NCC1CC1)c1ccc(-c2cc(C(=O)NC3CC3)ccc2F)cc1      %Inh          %             10
2  CCNCC(Cc1ccccc1)NC(=O)c1cc(Br)c(-c2ccnc3[nH]ccc23)s1.Cl.Cl (centres unmarked)      %Inh          %              0
3      Cn1cc(-c2cccc3c(N)c(C(N)=O)nnc23)cn1      %Inh          %             20
4  CCN1CCN(CCCC(=O)Nc2n[nH]c3nc(-c4ccc(O)cc4)c(Br)cc23)CC1      %Inh          %              0

Next, consider the following molecule.
Param request: %Inh | system NLK | item "Cc1cccc2c(-c3ccncc3)c(-c3ccc(F)cc3)nn12.Cl"
65

* * *

system: RSK4(Kin.Dom.2-C-terminal); construct: gene RPS6KA6; conditions: concentration: 1 μM,replicates: in singlicate; n = 1
property: %Inh (%)
Answers are plain numbers, in %.

Some solved cases for reference:
> print(dat)
                                    molecule  valueobserved
 1  Cl.Cl.NC[C@H](CC1CCCCC1)NC(=O)c1ccc(-c2ccnc3[nH]ccc23)s1             12
 2        NC(=O)Nc1sc(-c2ccc(F)cc2)cc1C(N)=O              4
 3   CC(=O)c1c(-c2ccncc2)[nH]c(-c2ccncc2)c1C              4
 4  C[C@@H]1CCN(C(=O)N2CCCC2)C[C@@H]1N(C)c1ncnc2[nH]ccc12             31
 5  COc1cc2ncn(-c3cc(OCC4CCCCC4)c(C(N)=O)s3)c2cc1OC             20
 6  C[C@@H]1CNc2c(sc3ccc4nc(-c5ccc(O)cc5)ccc4c23)C(=O)N1              8
 7  OCCn1cc(-c2cnc3nnn(Cc4ccc5ncccc5c4)c3n2)cn1              1
 8    O=C(Nc1ccccc1)c1cccc(Oc2ccc3nccn3n2)c1              0
 9  CCOC(=O)N1CCC(n2cnc(-c3ccc(F)cc3)c2-c2ccnc(N)n2)CC1             65
10  Cc1ccc(Nc2ccnc(Nc3ccc4c(c3)CS(=O)(=O)C4)n2)cc1O.Cl             35

# per-item lookup of %Inh; items listed below
1. Cc1ccc(C(=O)Nc2ccc(Oc3ccc4nc(NC(=O)C5CC5)cn4c3)c(F)c2)c(=O)n1-c1ccccc1
2. Cn1ccc2ncnc(Oc3ccc(NC(=O)Nc4cccc(C(F)(F)F)c4)c(Cl)c3)c21
3. COc1cc(Nc2nccc(N3CCC(NC(=O)c4cccc(C#N)c4)C3)n2)cc(OC)c1OC (centres unmarked)

1. 0
2. 41
3. 9

# per-item lookup of %Inh; items listed below
1. CCCC(=O)Nc1n[nH]c2ncccc12
2. Cl.c1ccc(Oc2ccc(Nc3ccnc4cc(-c5ccc(CN6CCNCC6)o5)ccc34)cc2)nc1
3. CS(=O)(=O)Nc1ccc(-c2ccnc3[nH]ccc23)cc1

0
22
60

# per-item lookup of %Inh; items listed below
1. CC(=O)Nc1ccc(-c2cc3ncnc(SCC(=O)O)c3s2)cc1
2. COC(=O)c1cccc(NC(=O)NC2CCN(c3ccnc(NCc4ccc(F)cc4)n3)CC2)c1
3. CN(c1ccc2c(c1)nc(NCc1ccc(F)cc1)n2C)c1ccnc(Nc2ccc(CS(C)(=O)=O)cc2)n1.Cl
4. COc1ccc(Nc2nccc(N3CCC(NC(=O)c4cccc(C#N)c4)C3)n2)cc1 (centres unmarked)

1: 18; 2: 0; 3: 0; 4: 0

# per-item lookup of %Inh; items listed below
1. CNC(=O)c1ccccc1Nc1nc(Nc2cccc(CS(C)(=O)=O)c2)ncc1C.O=CO
2. CN(c1cccc(CNc2nc(Nc3ccc4c(c3)CC(=O)N4)ncc2C(F)(F)F)c1)S(C)(=O)=O

1: 49; 2: 54

# per-item lookup of %Inh; items listed below
1. Cn1ccc2ncnc(Oc3ccc(NC(=O)Nc4cccc(C(F)(F)F)c4)c(F)c3)c21
2. CCN1CCN(CCCC(=O)Nc2n[nH]c3nc(-c4ccc(O)cc4)c(Br)cc23)CC1
3. COC(=O)Nc1nc2cc(Oc3ccc(NC(=O)Nc4cc(C(F)(F)F)ccc4Cl)cc3)ccc2[nH]1.Cl
4. C[C@@H]1CNc2c(sc3ccc4nc(-c5ccncc5)ccc4c23)C(=O)N1
5. C[C@@H](Oc1cc(-n2cnc3cc(-c4ccncc4)ccc32)sc1C(N)=O)c1ccccc1Cl
6. c1ccc(Oc2ccc(Nc3ccnc4ccc(-c5ccccn5)cc34)cc2)cc1
7. CCn1c(-c2nonc2N)nc2cncc(CNC3CCNCC3)c21.Cl
8. CN1CCN(CCNc2nc3cc(Oc4ccc(NC(=O)Nc5cc(C(F)(F)F)ccc5F)cc4)ccc3[nH]2)CC1.Cl.Cl

1: 2; 2: 0; 3: 25; 4: 21; 5: 21; 6: 14; 7: 25; 8: 0

# per-item lookup of %Inh; items listed below
1. Cn1ccc2ncnc(Oc3ccc(NC(=O)Nc4ccnc(C(F)(F)F)c4)c(Cl)c3)c21
2. O=C(Nc1cccc(C(F)(F)F)c1)c1cccc(Oc2ccc3nccn3n2)c1
3. Cc1ccc(CC(=O)N2CCc3cc(-c4cn(C)c5ncnc(N)c45)ccc32)cc1
4. Cc1n[nH]c2cc(Nc3ccnc(Nc4cccc(CN5CCOCC5)c4)n3)ccc12

2
22
15
16

Provide only the value of recorded %Inh for "COc1cccc(OC)c1C(=O)Nc1cccc(-c2nn3ccccc3c2-c2ccnc(Nc3cccc(F)c3)n2)c1"
12
